All values here come from patent US20240025884A1.

# measurement_target: GCN2 (Homo sapiens (Human))
# Sequence (Q9P2K8 whole entry): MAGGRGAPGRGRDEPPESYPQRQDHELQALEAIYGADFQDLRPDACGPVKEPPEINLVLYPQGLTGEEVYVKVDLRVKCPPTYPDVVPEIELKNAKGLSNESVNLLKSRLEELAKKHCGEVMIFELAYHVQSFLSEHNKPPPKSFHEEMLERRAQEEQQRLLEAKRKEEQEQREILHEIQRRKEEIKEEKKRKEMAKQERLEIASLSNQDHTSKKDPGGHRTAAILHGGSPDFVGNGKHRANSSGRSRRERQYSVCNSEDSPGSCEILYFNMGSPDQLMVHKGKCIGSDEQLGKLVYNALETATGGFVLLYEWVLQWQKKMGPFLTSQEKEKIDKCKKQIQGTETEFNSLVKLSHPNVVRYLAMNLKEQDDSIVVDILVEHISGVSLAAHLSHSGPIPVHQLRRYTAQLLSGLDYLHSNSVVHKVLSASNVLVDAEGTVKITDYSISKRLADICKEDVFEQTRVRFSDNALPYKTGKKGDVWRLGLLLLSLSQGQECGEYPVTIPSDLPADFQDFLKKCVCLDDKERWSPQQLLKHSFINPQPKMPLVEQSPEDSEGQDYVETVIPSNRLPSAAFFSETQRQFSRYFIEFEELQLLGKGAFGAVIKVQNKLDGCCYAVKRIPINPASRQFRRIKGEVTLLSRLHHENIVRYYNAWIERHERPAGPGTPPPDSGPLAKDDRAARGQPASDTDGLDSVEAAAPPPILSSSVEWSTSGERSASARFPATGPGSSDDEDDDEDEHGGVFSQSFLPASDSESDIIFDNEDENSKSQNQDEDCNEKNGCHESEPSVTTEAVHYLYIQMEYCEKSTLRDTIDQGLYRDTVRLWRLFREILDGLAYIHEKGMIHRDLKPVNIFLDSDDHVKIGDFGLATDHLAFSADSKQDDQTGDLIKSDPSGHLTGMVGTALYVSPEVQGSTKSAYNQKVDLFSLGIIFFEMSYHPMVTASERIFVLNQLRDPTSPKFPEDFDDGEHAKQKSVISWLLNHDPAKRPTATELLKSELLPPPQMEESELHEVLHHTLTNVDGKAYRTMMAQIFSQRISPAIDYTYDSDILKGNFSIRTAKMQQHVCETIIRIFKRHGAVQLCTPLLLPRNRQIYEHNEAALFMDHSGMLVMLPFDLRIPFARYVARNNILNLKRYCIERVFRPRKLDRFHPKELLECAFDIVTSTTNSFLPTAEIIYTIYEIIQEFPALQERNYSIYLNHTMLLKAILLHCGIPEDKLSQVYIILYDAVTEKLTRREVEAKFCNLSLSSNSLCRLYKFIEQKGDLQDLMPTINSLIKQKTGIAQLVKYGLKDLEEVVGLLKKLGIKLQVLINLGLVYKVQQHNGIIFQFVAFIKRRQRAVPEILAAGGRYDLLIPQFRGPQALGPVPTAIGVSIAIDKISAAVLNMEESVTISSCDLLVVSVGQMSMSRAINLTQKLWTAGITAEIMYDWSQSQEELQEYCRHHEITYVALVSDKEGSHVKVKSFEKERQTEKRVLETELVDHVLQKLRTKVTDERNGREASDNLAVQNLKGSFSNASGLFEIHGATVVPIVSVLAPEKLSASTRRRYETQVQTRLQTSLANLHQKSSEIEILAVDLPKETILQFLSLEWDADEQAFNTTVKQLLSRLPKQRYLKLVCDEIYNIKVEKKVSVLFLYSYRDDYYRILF
readout_type: IC50

Illustrative cases are given below, each with its answer.
[[record]]
smiles_entry = "Cc1cnc(Nc2cc(C)n(C)n2)nc1-c1c[nH]c2c(NC(=O)CN3CC[C@H](CC#N)C3)cccc12"
measurement_target = "GCN2 (Homo sapiens (Human))"
meas_value = "100 to 1000 nM"

[[record]]
smiles_entry = "Cc1cnc(Nc2cc(C)n(C)n2)nc1-c1c[nH]c2c(NC(=O)CN3CC[C@H](Oc4cc(NCCCO)ncn4)C3)cccc12"
measurement_target = "GCN2 (Homo sapiens (Human))"
meas_value = "< 10 nM"

[[record]]
smiles_entry = "Cc1cnc(Nc2cc(C)n(C)n2)nc1-c1c[nH]c2c(N3Cc4c(cccc4-c4ccc(N5CCN(C)CC5)cc4)C3=O)cccc12"
measurement_target = "GCN2 (Homo sapiens (Human))"
meas_value = "< 10 nM"


Can you give me IC50 for all of these, one by one?
1. Cc1cnc(Nc2cc(C)n(C)n2)nc1-c1c[nH]c2c(NC(=O)CN3CC[C@H](Oc4cc(N(C)C)ncn4)C3)cccc12
2. Cc1cnc(Nc2cc(C)n(C)n2)nc1-c1c[nH]c2c(N3Cc4c(cccc4-c4ccccc4N)C3=O)cccc12
3. Cc1cnc(Nc2cc(C)n(C)n2)nc1-c1c[nH]c2c(N3Cc4ccc(C#Cc5ccccc5)cc4C3=O)cccc12
4. Cc1cnc(Nc2cc(C)n(C)n2)nc1-c1c[nH]c2c(N3Cc4cccc([N+](=O)[O-])c4C3=O)cccc12

1: < 10 nM; 2: 10 to 100 nM; 3: > 1000 nM; 4: < 10 nM

====

Data export: pIC50 values recorded with UniProt:Q9P2K8.
pIC50: −log10 of the molar value.

[[record]]
compound = "Cc1cnc(Nc2cc(C)n(C)n2)nc1-c1c[nH]c2c(N3Cc4c(cccc4-c4cnn(C)c4)C3=O)cccc12"
meas_value = "> 8.00"

[[record]]
compound = "Cc1cnc(Nc2cc(C)n(C)n2)nc1-c1c[nH]c2c(N3Cc4c(NC(=O)[C@@H]5CCC(=O)N5)cccc4C3=O)cccc12"
meas_value = "> 8.00"

[[record]]
compound = "Cc1cnc(Nc2cc(C)n(C)n2)nc1-c1c[nH]c2c(N3Cc4c(cccc4-c4ccnc(C(N)=O)c4)C3=O)cccc12"
meas_value = "> 8.00"

[[record]]
compound = "Cc1cnc(Nc2cc(C)n(C)n2)nc1-c1c[nH]c2c(NC(=O)C(C)N3CC[C@H](Oc4ccncc4)C3)cccc12 (stereo partly shown)"
meas_value = "6.00 to 7.00"

[[record]]
compound = "CCNc1cc(O[C@H]2CCN(CC(=O)Nc3cccc4c(-c5nc(Nc6cc(C)n(C)n6)ncc5C)c[nH]c34)C2)ncn1"
meas_value = "> 8.00"


Please state pIC50 for every compound in the list that follows.
1. CNc1cc(-c2cccc3c2CN(c2cccc4c(-c5nc(Nc6cc(C)n(C)n6)ncc5C)c[nH]c24)C3=O)ccn1
2. CCN(CC)c1cc(O[C@H]2CCN(CC(=O)Nc3cccc4c(-c5nc(Nc6cc(C)n(C)n6)ncc5C)c[nH]c34)C2)ncn1

["> 8.00", "7.00 to 8.00"]

====

# measurement_target: GCN2 (Homo sapiens (Human))
pIC50: −log10 of the molar value.
Consider the following molecules; for each one, report its pIC50.

Worked examples follow.
[[record]]
smiles_entry = "Cc1cnc(Nc2cc(C)n(C)n2)nc1-c1c[nH]c2c(NC(=O)CN3CC[C@H](Oc4ccnc(N(C)Cc5ccccc5)n4)C3)cccc12"
measurement_target = "GCN2 (Homo sapiens (Human))"
meas_value = "6.00 to 7.00"

[[record]]
smiles_entry = "Cc1cnc(Nc2cc(C)n(C)n2)nc1-c1c[nH]c2c(NC(=O)C(C)(C)N3CCCC3)cccc12"
measurement_target = "GCN2 (Homo sapiens (Human))"
meas_value = "6.00 to 7.00"

[[record]]
smiles_entry = "Cc1cnc(Nc2cc(C)n(C)n2)nc1-c1c[nH]c2c(NC(=O)CN3CC[C@H](Oc4ncc(F)c(N5CCCCC5)n4)C3)cccc12"
measurement_target = "GCN2 (Homo sapiens (Human))"
meas_value = "> 8.00"

[[record]]
smiles_entry = "Cc1cc(Nc2ncc(C3CC3)c(-c3c[nH]c4c(NC(=O)CN5CC[C@H](Oc6ccnc(NC7CC7)n6)C5)cccc34)n2)nn1C"
measurement_target = "GCN2 (Homo sapiens (Human))"
meas_value = "7.00 to 8.00"

[[record]]
smiles_entry = "Cc1cnc(Nc2cc(C)n(C)n2)nc1-c1c[nH]c2c(N3Cc4c(NC(=O)[C@@H]5CCNC5)cccc4C3=O)cccc12"
measurement_target = "GCN2 (Homo sapiens (Human))"
meas_value = "> 8.00"


Consider the additional molecule presented here.
Entry CC(=O)/C=C/c1cccc2c1CN(c1cccc3c(-c4nc(Nc5cc(C)n(C)n5)ncc4C)c[nH]c13)C2=O ; pIC50 = > 8.00
